Just for reference, the Immune Epitope Database (IEDB) is where these values come from.

biological target: HLA-A*30:01; assay: IEDB peptide-MHC binding, purified MHC/direct/fluorescence; filed as Kd, often an IC50 or EC50 that approximates it; bounds were set here for any values at or beyond the usual limits of such assays; settings: source organism: Corynebacterium glutamicum
Reported Property: Kd
In your response, put the unit directly after the numeric value.

Q: What Kd value was documented for this sequence, "VHDREGNEV" ?
Result: 4.84 µM

---

target: HLA-A*29:02; experiment: IEDB peptide-MHC binding, purified MHC/competitive/radioactivity; filed as Kd, often an IC50 or EC50 that approximates it; bounds were set here for any values at or beyond the usual limits of such assays; settings: source organism: Mammarenavirus juninense
Reported Property: Kd (nM)
Give the quantity in nM, number only.

[
  {
    "Sequence Content": "EALSGFLQY",
    "U": "nM",
    "Kd": 778
  }
]

As a next step, examine the sequence that follows.
Q: What Kd value was documented for this sequence, "VAHSSLYGRY" ?
Result: 349

---

biological target: HLA-A*26:02; test: IEDB peptide-MHC binding, purified MHC/competitive/fluorescence; filed as Kd, often an IC50 or EC50 that approximates it; bounds were set here for any values at or beyond the usual limits of such assays; details: source organism: Bacillus anthracis str. A0488
Reported Property: Kd (nM)
Give the quantity in nM, number only.

Q: What Kd value was documented for this sequence, "KVQEWYLSY" ?
Result: 1210

---

target: HLA-B*45:06; assay: IEDB peptide-MHC binding, purified MHC/competitive/fluorescence; filed as Kd, often an IC50 or EC50 that approximates it; bounds were set here for any values at or beyond the usual limits of such assays; conditions: source organism: Crocodilepox virus
pKd: −log10 of the molar value.
Reported Property: pKd

Q: What pKd value was documented for this sequence, "RVRSMANVY" ?
Result: ≤ 5.30

---

molecular target: HLA-A*11:01; assay: IEDB peptide-MHC binding, purified MHC/competitive/fluorescence; bounds were set here for any values at or beyond the usual limits of such assays; conditions: source organism: Vaccinia virus Copenhagen
Reported Property: pIC50
Hey, just a heads up that pIC50 is the negative log base 10 of the concentration in molar.

Q: What pIC50 value was documented for this sequence, "SQMTSTFIM" ?
Result: 5.80

---

biological target: HLA-B*51:01; experiment: IEDB peptide-MHC binding, purified MHC/competitive/radioactivity; filed as Kd, often an IC50 or EC50 that approximates it; bounds were set here for any values at or beyond the usual limits of such assays; settings: source organism: Dengue virus 1 Singapore/S275/1990
pKd: −log10 of the molar value.
Reported Property: pKd

Q: Report pKd for "LPVLLGSLGC" tested on HLA-B*51:01.
Result: ≤ 4.70

---

Each entry below carries its recorded pKd.
target: HLA-B*27:05; experiment: IEDB peptide-MHC binding, purified MHC/direct/fluorescence; filed as Kd, often an IC50 or EC50 that approximates it; bounds were set here for any values at or beyond the usual limits of such assays; conditions: source organism: Vibrio parahaemolyticus
pKd: −log10 of the molar value.

The following sequences have reported results that may help.
[
  {
    "Sequence Content": "ASEELMDKY",
    "pKd": "≤ 4.70"
  },
  {
    "Sequence Content": "VFMDNAFKK",
    "pKd": "≤ 4.70"
  }
]

As a next step, examine the sequence that follows.
Q: What pKd value was documented for this sequence, "QYDDLHKKF" ?
Result: ≤ 4.70
